- target: UniProt P56817
- Sequence (P56817 46-501): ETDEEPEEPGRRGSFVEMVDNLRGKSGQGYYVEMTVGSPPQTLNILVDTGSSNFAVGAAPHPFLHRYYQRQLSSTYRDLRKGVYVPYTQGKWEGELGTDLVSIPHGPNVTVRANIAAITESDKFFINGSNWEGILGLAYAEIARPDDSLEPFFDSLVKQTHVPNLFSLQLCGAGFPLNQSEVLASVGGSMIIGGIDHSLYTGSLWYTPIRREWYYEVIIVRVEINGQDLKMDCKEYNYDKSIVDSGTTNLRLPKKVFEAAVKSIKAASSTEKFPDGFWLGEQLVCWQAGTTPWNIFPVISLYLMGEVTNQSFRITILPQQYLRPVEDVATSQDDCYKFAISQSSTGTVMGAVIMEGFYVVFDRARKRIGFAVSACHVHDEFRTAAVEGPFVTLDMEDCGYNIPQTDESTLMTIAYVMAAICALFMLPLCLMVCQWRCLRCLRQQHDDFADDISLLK
- assay-procedure: in vitro BACE Assay-1 (CEREP, fluorogenic substrate)
- condition-details: recombinant enzyme, pH 4.5, 60 min at 37° C.
pIC50: −log10 of the molar value.
I would appreciate it if you labelled entries class 1 when pIC50 is 6 or higher, otherwise class 0.

compound | assigned-category
CC(C)(C)OCCNC(=O)CCC(c1cc2cc(-c3ccccc3F)ccc2nc1N)C1CCOCC1 (stereo not drawn) | class 1

# input For this compound, is measured pIC50 6 or higher? Cn1ccnc1CN(CCC(C)(C)C)C(=O)CCC(c1cc2cc(-c3ccccc3C(F)(F)F)ccc2nc1N)C1CCOCC1 (stereo not drawn)
# output class 0

# input For this compound, is measured pIC50 6 or higher? COc1ccccc1-c1ccc2nc(N)c(C(CCC(=O)N(CCC(C)(C)C)Cc3nccn3C)C3CCOCC3)cc2c1 (stereo not drawn)
# output class 1

# input For this compound, is measured pIC50 6 or higher? Cn1ccnc1CN(CCC(C)(C)C)C(=O)CCC(c1cc2cc(-c3cccs3)ccc2nc1N)C1CCOCC1 (stereo not drawn)
# output class 1
